Molecular target: Acetylcholine receptor subunit alpha (Homo sapiens, UniProt P02708)
Sequence (P02708 whole entry): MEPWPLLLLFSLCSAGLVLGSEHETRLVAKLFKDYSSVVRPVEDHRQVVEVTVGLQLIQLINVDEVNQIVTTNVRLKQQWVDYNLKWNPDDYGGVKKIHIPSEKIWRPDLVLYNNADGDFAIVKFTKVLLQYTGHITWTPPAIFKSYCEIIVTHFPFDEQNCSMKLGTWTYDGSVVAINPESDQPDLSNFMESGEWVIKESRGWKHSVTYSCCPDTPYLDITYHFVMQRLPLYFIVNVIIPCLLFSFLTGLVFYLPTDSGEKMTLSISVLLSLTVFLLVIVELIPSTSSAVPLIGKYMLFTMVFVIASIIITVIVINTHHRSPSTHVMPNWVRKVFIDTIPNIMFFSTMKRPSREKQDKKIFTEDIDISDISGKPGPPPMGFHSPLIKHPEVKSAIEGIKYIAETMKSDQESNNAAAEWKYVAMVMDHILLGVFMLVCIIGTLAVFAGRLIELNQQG
Assay: Cross screening panel
pIC50: −log10 of the molar value.
metric: pIC50

### Prompt Please look up its pIC50: "CNC(=O)c1cc(C(=O)NC2CC2)cn(Cc2ccccc2)c1=O"
### Response < 4.30

----------
Molecular target: Kappa-type opioid receptor (Homo sapiens, UniProt P41145)
Sequence (P41145 whole entry): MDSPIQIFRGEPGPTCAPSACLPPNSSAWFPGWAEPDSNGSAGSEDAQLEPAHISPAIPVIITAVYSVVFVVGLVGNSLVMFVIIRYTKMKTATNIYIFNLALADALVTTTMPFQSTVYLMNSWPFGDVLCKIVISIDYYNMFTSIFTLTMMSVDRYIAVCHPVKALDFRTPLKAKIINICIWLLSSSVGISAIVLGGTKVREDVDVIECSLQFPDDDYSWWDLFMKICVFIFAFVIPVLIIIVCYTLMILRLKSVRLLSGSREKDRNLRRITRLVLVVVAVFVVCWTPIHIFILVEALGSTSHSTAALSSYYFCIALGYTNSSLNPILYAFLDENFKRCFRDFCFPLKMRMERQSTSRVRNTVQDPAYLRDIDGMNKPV
Test: Cross screening panel
metric: EC50

### Prompt Query: EC50; subject: CNC(=O)c1cc(C(=O)NC2CC2)cn(Cc2ccccc2)c1=O [GSK620]
### Response > 100 µM

----------
Target: Bromodomain-containing protein 8 (Homo sapiens)
Sequence (Q9H0E9 whole entry): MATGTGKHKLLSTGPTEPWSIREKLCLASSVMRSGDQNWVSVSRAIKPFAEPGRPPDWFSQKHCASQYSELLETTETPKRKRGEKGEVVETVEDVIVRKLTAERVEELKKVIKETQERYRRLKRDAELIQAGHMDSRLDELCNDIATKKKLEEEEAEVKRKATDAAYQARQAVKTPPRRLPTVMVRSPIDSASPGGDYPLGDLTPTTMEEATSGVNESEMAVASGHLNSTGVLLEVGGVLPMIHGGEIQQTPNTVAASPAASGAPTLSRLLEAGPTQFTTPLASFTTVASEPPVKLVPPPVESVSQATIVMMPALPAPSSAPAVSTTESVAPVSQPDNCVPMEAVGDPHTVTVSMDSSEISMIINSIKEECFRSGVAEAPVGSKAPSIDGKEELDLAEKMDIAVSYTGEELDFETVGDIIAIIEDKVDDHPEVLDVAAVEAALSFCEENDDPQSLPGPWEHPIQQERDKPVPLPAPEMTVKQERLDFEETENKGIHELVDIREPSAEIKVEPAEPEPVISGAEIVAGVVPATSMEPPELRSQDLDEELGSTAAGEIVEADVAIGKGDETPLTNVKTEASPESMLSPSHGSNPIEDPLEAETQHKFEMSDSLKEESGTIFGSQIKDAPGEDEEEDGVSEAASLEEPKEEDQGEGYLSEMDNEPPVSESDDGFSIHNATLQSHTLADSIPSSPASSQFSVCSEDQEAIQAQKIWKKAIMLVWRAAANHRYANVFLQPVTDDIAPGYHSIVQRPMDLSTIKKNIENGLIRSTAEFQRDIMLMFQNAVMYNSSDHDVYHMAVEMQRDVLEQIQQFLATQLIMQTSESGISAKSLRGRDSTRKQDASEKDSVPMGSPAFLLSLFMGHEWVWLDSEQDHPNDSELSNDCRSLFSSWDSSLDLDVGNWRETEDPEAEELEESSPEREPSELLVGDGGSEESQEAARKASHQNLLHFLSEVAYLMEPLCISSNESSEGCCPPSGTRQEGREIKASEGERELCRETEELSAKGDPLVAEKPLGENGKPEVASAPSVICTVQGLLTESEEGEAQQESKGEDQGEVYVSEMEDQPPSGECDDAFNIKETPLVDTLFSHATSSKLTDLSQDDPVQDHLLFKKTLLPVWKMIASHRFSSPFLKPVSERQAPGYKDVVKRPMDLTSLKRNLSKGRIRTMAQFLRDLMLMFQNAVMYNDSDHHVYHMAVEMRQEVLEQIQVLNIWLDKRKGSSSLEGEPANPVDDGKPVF
Test: BRD8(2) DiscoverX BROMOscan
metric: Kd

### Prompt # input compound: "CNC(=O)c1cc(C(=O)NC2CC2)cn(Cc2ccccc2)c1=O" ; wanted: its Kd
### Response 31.6 µM
